Assay: Pharmacokinetics in nude mouse (IV and PO)
Type: in vivo
Experimental parameters: female, BALB/c nude, plasma, PO, 100 mg/kg
Readout label: AUC(0-t)
A complete answer gives the number followed by the unit.

State, in one line, measured AUC(0-t) of CCN1CCN(Cc2cnc(Nc3cc(-c4cc(F)c5nc(C)n(C(C)C)c5c4)c(F)cn3)nc2)CC1 [Compound 1]
33900 ng·h/mL

====

For each of the molecules below, state its Tmax.
Assay: Linear pharmacokinetics in rat (PO)
Type: in vivo, male SD rat
Experimental parameters: male, SD, plasma, 15 mg/kg
Give a bare numeral; the unit h is implied.

Identify the reported Tmax for the following entry. CCN1CCN(Cc2cnc(Nc3cc(-c4cc(F)c5nc(C)n(C(C)C)c5c4)c(F)cn3)nc2)CC1
4

For the molecule CCN1CCN(Cc2ccc(Nc3ncc(F)c(-c4cc(F)c5nc(C)n(C(C)C)c5c4)n3)nc2)CC1 [LY2835219, reference compound] , give its reported Tmax.
4
